Form field: Growth Rate (one value per entry).
- Tested on: U2OS
- EXPERIMENT: Incucyte cell viability with U2OS; further: filed as whole numbers so only -1 and 0 and 1 occur
- Assay type: toxicity, cell-based
- CONDITIONS: human, 12 h, 10 µM, compound concentration 10 uM, replicate number 1, timepoint 12 hours
A bare number is all that is needed in reply.

# input Report Growth Rate for `NS(=O)(=O)c1cc(NC(=O)C2(c3ccccc3Cl)CC2)ccc1Oc1cccc(Cl)c1` tested on U2OS.
# output 0

# input Enter reported Growth Rate observed with U2OS for COc1cccc(OC)c1-c1cc(C(=O)NC2(C(=O)O)C3CC4CC(C3)CC2C4)nn1-c1ccnc2cc(Cl)ccc12 (centres undefined)
# output 1

---
# input For the record `CCCCC[C@H](O)/C=C/[C@@H]1[C@@H](C/C=C\CCCC(=O)O)[C@@H](O)C[C@H]1O` , what value of Growth Rate is listed for U2OS?
# output 1

# input Please state recorded Growth Rate (tested on U2OS) of `CCCCc1nc(Cl)c(CO)n1Cc1ccc(-c2ccccc2-c2nn[nH]n2)cc1`
# output 1

# input Can you look up Growth Rate on U2OS for `O=C(NCc1ccc(F)cc1)C1CCN(S(=O)(=O)c2cc(Cl)cc(Cl)c2)CC1` ?
# output 1

# input API: value(readout= Growth Rate, system= U2OS, query= `Cc1c(Oc2ccc(F)cc2)c(OC(C)C)nn1-c1ccc(C2CC2)cn1` )
# output 1

# input Given the entry `C[C@@H]1CCc2ncc(F)cc2[C@H]2CCCN2c2ccn3ncc(c3n2)C(=O)N1` , what Growth Rate was observed with U2OS?
# output 1

# input What measured Growth Rate is associated with `N#Cc1c(N)nc(SCC(N)=O)c(C#N)c1-c1ccc(OCC2CC2)cc1` on U2OS?
# output 1

# input Given the entry `CN(C)CCOc1ccc(-c2nc(-c3ccncc3)c(-c3ccc4c(c3)CC/C4=N\O)[nH]2)cc1` , what Growth Rate was observed with U2OS?
# output 0
